The measurements presented in this section are drawn from patent US12473304B2.

Biological target: human PAD4 (hPAD4) (Homo sapiens (Human), UniProt Q9UM07)
Sequence (Q9UM07 whole entry): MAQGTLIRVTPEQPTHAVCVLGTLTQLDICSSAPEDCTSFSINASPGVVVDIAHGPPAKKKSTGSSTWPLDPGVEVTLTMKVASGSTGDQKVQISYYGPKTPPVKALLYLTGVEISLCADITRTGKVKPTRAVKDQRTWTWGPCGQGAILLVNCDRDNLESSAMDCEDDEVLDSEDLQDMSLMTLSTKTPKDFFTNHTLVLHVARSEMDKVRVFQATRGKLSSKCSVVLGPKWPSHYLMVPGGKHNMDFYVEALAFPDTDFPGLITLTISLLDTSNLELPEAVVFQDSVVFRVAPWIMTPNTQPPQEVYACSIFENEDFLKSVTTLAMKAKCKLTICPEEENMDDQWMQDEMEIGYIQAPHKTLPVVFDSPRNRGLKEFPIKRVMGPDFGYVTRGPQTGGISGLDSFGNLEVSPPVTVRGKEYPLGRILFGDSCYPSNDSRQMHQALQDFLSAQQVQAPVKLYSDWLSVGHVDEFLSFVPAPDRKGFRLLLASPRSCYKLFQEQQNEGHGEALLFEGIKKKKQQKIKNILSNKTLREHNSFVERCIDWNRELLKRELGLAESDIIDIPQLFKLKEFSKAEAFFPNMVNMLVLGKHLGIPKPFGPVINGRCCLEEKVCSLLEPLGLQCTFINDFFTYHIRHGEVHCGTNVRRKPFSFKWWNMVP
Assay: RFMS Human PAD4 Functional Assay 1
Conditions: RFMS assay 1; 5 nM hPAD4, 250 μM BAEE substrate, 50 μM calcium, 37° C.
Experimental: RFMS Human PAD4 Functional Assay 1: Compounds were solubilized in 100% DMSO to achieve all) mM compound concentration. Compound stock solutions were stored at RT. A series of dilutions were prepared in DMSO and mixed 8 times with 20 μL mixing volume. Final top concentration of compound in the assay is 50 μM. […] MRM transition of product and internal standard were monitored at m/z 424.5 to 350.4 and m/z 293 to 247 respectively. […]
pIC50: −log10 of the molar value.
Readout Type: pIC50

| Compound | pIC50 |
| --- | --- |
| Cc1c(-c2cc3ccc(-c4ccc5c(c4)CNC5=O)nc3n2CC2CC2)nn2cc(C(=O)N3C[C@H](N)C[C@@H](F)C3)ccc12 | 6.42 |
| COCC(=O)N1CCC(c2cccc3cc(-c4nn5cc(C(=O)N6C[C@H](N)C[C@@H](F)C6)cc(F)c5c4C)n(CC4CC4)c23)CC1 | 7.52 |

[A] COc1cc(C(=O)N2CCC[C@@H](N)C2)cn2nc(-c3cc4cccc(C5CCN(C(=O)[C@H](C)OC)CC5)c4n3CC3CC3)c(C)c12
[B] Cc1c(-c2cc3cccc(C4CCN(C(=O)c5cccs5)CC4)c3n2CC2CC2)nn2cc(C(=O)N3CC4CCC3[C@@H]4N)ccc12 (stereo partly drawn)
[C] COc1cc(C(=O)N2CCC[C@@H](N)C2)cn2nc(-c3cc4ccnc(OCCn5cncn5)c4n3CC3CC3)c(C)c12
[D] COc1cc(-c2ccc3cc(-c4oc5cc(C(=O)N6CC7CCC6[C@@H]7N)ccc5c4C)n(CC4CC4)c3n2)ccn1 (stereo partly drawn)
Task: // ranking: key=pIC50, reverse=True Sort and list the labels as requested.
Result: B, C, A, D

###

Target: UniProtKB Q9UM07
Assay: RFMS Human PAD4 Functional Assay 1
Conditions: RFMS assay 1; 5 nM hPAD4, 250 μM BAEE substrate, 50 μM calcium, 37° C.
Experimental: RFMS Human PAD4 Functional Assay 1: Compounds were solubilized in 100% DMSO to achieve all) mM compound concentration. Compound stock solutions were stored at RT. A series of dilutions were prepared in DMSO and mixed 8 times with 20 μL mixing volume. Final top concentration of compound in the assay is 50 μM. […] MRM transition of product and internal standard were monitored at m/z 424.5 to 350.4 and m/z 293 to 247 respectively. […]
pIC50: −log10 of the molar value.
Readout Type: pIC50

The examples below pair each entry with its known result.
| Molecule | Readout Number |
| --- | --- |
| COC(C)(C)C(=O)N1CCC(c2cccc3cc(-c4nn5cc(C(=O)N6C[C@H](N)C[C@@H](F)C6)cc(F)c5c4C)n(CC4CC4)c23)CC1 | 5.30 |
| COc1cc(C(=O)N2CC3CCC2[C@@H]3N)cc2sc(-c3cc4ccc(-c5ccc(C(N)=O)c(F)c5)nc4n3CC3CC3)c(C)c12 (stereo partly drawn) | 6.89 |
| COc1cc(C(=O)N2CC3CCC2[C@@H]3N)cc2oc(-c3cc4ccc(-c5ccc(O)c(F)c5)cc4n3CC3CC3)c(C)c12 (stereo partly drawn) | 5.99 |
| COc1cc(C(=O)N2C[C@H](N)C[C@@H](F)C2)cn2nc(-c3cc4ccc(-c5ccc(CNC(C)=O)cc5)cc4n3CC3CC3)c(C)c12 | 6.29 |

[A] Cc1c(-c2cc3ccc(-c4cccc(-c5nn[nH]n5)c4)cc3n2CC2CC2)nn2cc(C(=O)N3C[C@H](N)C[C@@H](F)C3)ccc12
[B] Cc1c(-c2cc3cccnc3n2CC2CC2)nn2cc(C(=O)N3CC4CCC3[C@@H]4N)cc(F)c12 (stereo partly drawn)
Task: Hi, I'm comparing A with B and wondering which one has the bigger number for pIC50. Any idea? Give the chosen item's label as your response.
Result: B
(B: 6.80, A: 5.55)
